tested on: NOMO1; assay: cell viability relative to DMSO control; higher = less cytotoxic; details: RPMI 5 mM glucose + 10% dialyzed FBS; 48 h; 0.000781 µM
Experimental readout: cell viability (%)
Report only the number, with the unit % understood.

If you can, please state the reported cell viability value of N#Cc1ccnc(N2C(=O)CC[C@H]2C(=O)N(c2cncc(F)c2)[C@H](C(=O)NC2CC(F)(F)C2)c2ccccc2Cl)c1 . 97.2

Check Clc1ccccc1C(c1ccccc1)(c1ccccc1)n1ccnc1 too. 119

Check C1COC(NC(C2CC2)C2CC2)=N1 too. 79.2

Check CC(C)c1c(C(=O)Nc2ccccc2)c(-c2ccccc2)c(-c2ccc(F)cc2)n1CC[C@@H](O)C[C@@H](O)CC(=O)[O-] too. 90.4

Check CCOCC(O)COc1ccc(NC(=O)CC[S+](C)C)cc1 (configuration not stated) too. 82.1

Check CCOC(=O)N[C@@H]1CC[C@@H]2[C@@H](C1)C[C@H]1C(=O)O[C@H](C)[C@H]1[C@H]2/C=C/c1ccc(-c2cccc(F)c2)cn1 too. 125

Check CCC(C1CCC(C)C(O1)C(C)C(O)C(C)C(=O)C(CC)C2OC\3(O[C@]4(CC[C@@](C)(O4)C5CC[C@@](O)(CC)C(C)O5)C(O)\C=C3)C(C)CC2C)C([O-])=O (some centres not stated) too. 96.9

----------
test system: NOMO1; assay: cell viability relative to DMSO control; higher = less cytotoxic; conditions: RPMI 5 mM glucose + 10% FBS; 48 h; 0.19 µM
Experimental readout: cell viability (%)
Report only the number, with the unit % understood.

If you can, please state the reported cell viability value of NCCc1ccc(O)c(O)c1 . 124

Check Cc1ccc(/C=N/NC(=O)c2ccccc2Oc2ccccc2)o1 too. 91.2

Check CC(C)(C)OC(=O)Nc1ccc(-c2cc(C(=O)NCCCCCCC(=O)NO)no2)cc1 too. 88.6

Check Oc1ccc([C@@H]2Oc3ccc(O)cc3[C@@H]3CCC[C@@H]32)cc1 too. 100

Check OC[C@H]1OC(OC2=CC3=C(C(=C2)O)C(=O)\C(=C/O3)C4=CC=C(O)C=C4)[C@H](O)[C@@H](O)[C@@H]1O (stereo partly drawn) too. 90.7

Check C[C@H]1Oc2cc(cnc2N)-c2c(nn(C)c2C#N)CN(C)C(=O)c2ccc(F)cc21 too. 126

Check CCC(C1CCC(C)C(O1)C(C)C(O)C(C)C(=O)C(CC)C2OC\3(O[C@]4(CC[C@@](C)(O4)C5CC[C@@](O)(CC)C(C)O5)C(O)\C=C3)C(C)CC2C)C([O-])=O (stereo partly drawn) too. 110

Check CCN(CC)CCCC(C)Nc1nc(C)cc(Nc2ccc3nc(C)cc(N)c3c2)n1 (stereo not drawn) too. 116

----------
Kindly supply the reported cell viability values for the records listed here.
test system: NOMO1; assay: cell viability relative to DMSO control; higher = less cytotoxic; conditions: RPMI 5 mM glucose + 10% FBS; 48 h; 15.4 µM
Report only the number, with the unit % understood.

What cell viability appears in the records for this compound with NOMO1? Oc1ccc2ccccc2c1SSc1c(O)ccc2ccccc12 104

Check C[N]1C=C(C=N1)C2=CC=C3N=CC\4=C(N(C(=O)\C=C4)C5=CC6=C(CCN6C(=O)C=C)C=C5)C3=C2 too. 13.5

Check CC[C@@H]1C(=O)N(C)c2cnc(Nc3ccc(C(=O)NC4CCN(C)CC4)cc3OC)nc2N1C1CCCC1 too. 14.3

Check CC(C)CC(N(C)C)C1(c2ccc(Cl)cc2)CCC1 (stereo not drawn) too. 94.1

Check CCOC(=O)N[C@@H]1CC[C@@H]2[C@@H](C1)C[C@H]1C(=O)O[C@H](C)[C@H]1[C@H]2/C=C/c1ccc(-c2cccc(F)c2)cn1 too. 142

Check Oc1ccc(-c2ccc(-c3cc(Nc4cccc(CNC5CC5)c4)[nH]n3)cc2)c(O)c1 too. 27.8

Check Cc1cnc(Nc2ccc(N3CCN(C)CC3)cc2)nc1Nc1cccc([S+](=O)([O-])NC(C)(C)C)c1 too. 44.6

Check COc1cc2ncnc(Nc3cccc(Cl)c3)c2cc1OC too. 39.6

Check Nc1nc(NCCNc2ncc(-n3ccnc3)c(-c3ccc(Cl)cc3Cl)n2)ccc1[N+](=O)[O-] too. 151

Check Oc1ccc([C@@H]2Oc3ccc(O)cc3[C@@H]3CCC[C@@H]32)cc1 too. 77

Check Nc1nc(N)c(N=O)c(OCC2CCCCC2)n1 too. 48

Check NC[C@H]1O[C@H](O[C@H]2[C@H](O)[C@@H](O[C@H]3O[C@H](CO)[C@@H](O)[C@H](N)[C@H]3O)[C@H](N)C[C@@H]2N)[C@H](N)C[C@@H]1O too. 101

Check Oc1c(Cl)cc(Cl)c2cccnc12 too. 91.6

Check CC(C)(C)C1=CC(=C(NC(=O)C/2=C/NC3=C(C=CC=C3)C2=O)C=C1O)C(C)(C)C too. 111

Check COC(=O)C/1=C(C)/N/C(=C(\C1C2=CC(=CC=C2)[N+]([O-])=O)C(=O)OCCCN3CCC(CC3)(C4=CC=CC=C4)C5=CC=CC=C5)C (stereo not drawn) too. 95.3

Check Cc1ccc(-c2cc(C(F)(F)F)nn2-c2ccc([S+](N)(=O)[O-])cc2)cc1 too. 128

Check CN(C)CCOc1ccc(/C(=C(/CCCl)c2ccccc2)c2ccccc2)cc1 too. 57.3

Check OC[C@H]1OC(OC2=CC3=C(C(=C2)O)C(=O)\C(=C/O3)C4=CC=C(O)C=C4)[C@H](O)[C@@H](O)[C@@H]1O (stereo partly drawn) too. 86.3

----------
tested on: SEM cells; assay: cell viability relative to DMSO control; higher = less cytotoxic; conditions: RPMI 5 mM glucose + 10% FBS; 48 h; 0.0632 µM
Experimental readout: cell viability (%)
Report only the number, with the unit % understood.

What cell viability appears in the records for this molecule with SEM cells? COc1cc2ncn(-c3cc(OCc4ccccc4C(F)(F)F)c(C(N)=O)s3)c2cc1OC 124

Check CC(C)[N+]1(C)C2CCC1CC(OC(=O)C(CO)c1ccccc1)C2.O.[Br-] (stereo not given) too. 125

Check Cn1cnc([N+](=O)[O-])c1Sc1ncnc2nc[nH]c12 too. 88.2

Check C[C@@H](N)C1CC[C@@H](CC1)C(=O)NC2=CC=NC=C2 (stereo not given in full) too. 103

Check Clc1ccc2ncc(-c3cccc(NC4CNC4)n3)n2c1 too. 147

Check N#C/C(=C1/Nc2ccccc2S1)c1ccnc(OCc2ccc(CN3CCOCC3)cc2)n1 too. 99.4

Check Oc1ccc([C@@H]2Oc3ccc(O)cc3[C@@H]3CCC[C@@H]32)cc1 too. 106

Check COC(=O)C/1=C(C)/N/C(=C(\C1C2=CC(=CC=C2)[N+]([O-])=O)C(=O)OCCCN3CCC(CC3)(C4=CC=CC=C4)C5=CC=CC=C5)C (stereo not given) too. 90.3

Check O=C1N\C=N/C2=C1C=N[NH]2 too. 62.5

Check N#CC[C@H](C1CCCC1)n1cc(-c2ncnc3[nH]ccc23)cn1 too. 109

Check CC(C)(C)C1=CC(=C(NC(=O)C/2=C/NC3=C(C=CC=C3)C2=O)C=C1O)C(C)(C)C too. 120

Check Cc1nc(N)ncc1-c1nc(N2CCOCC2)c2sc(C(C)(C)O)cc2n1 too. 13.6

Check CC[C@@H]1C(=O)N(C)c2cnc(Nc3ccc(C(=O)NC4CCN(C)CC4)cc3OC)nc2N1C1CCCC1 too. 39

Check C[C@H](NCc1ccc(OCc2cccc(F)c2)cc1)C(N)=O too. 106

Check Cc1cnc(Nc2ccc(CN3CCOCC3)cc2)nc1Nc1cccc([S+](=O)([O-])NC(C)(C)C)c1 too. 83.5

Check CCN(CC)CCCC(C)Nc1nc(C)cc(Nc2ccc3nc(C)cc(N)c3c2)n1 (stereo not given) too. 69.6

Check CC(C)Cn1cnc2c(N)nc3ccccc3c21 too. 104

Check COC(=O)Nc1nc2ccc([S+]([O-])c3ccccc3)cc2[nH]1 (stereo not given) too. 116

Check N=C(N)NC(=N)N1CCOCC1 too. 105

Check CCc1cc(-c2n[nH]c(C)c2-c2ccc3c(c2)OCCO3)c(O)cc1O too. 134

----------
system: P12-Ichikawa; experiment: cell viability relative to DMSO control; higher = less cytotoxic; conditions: RPMI 5 mM glucose + 10% dialyzed FBS; 48 h; 15.4 µM
Each record is given label 1 if its reported cell viability is strictly below 90%. Records at or above 90% are given label 0.

Please check: cell viability for Cc1cnc(Nc2ccc(CN3CCOCC3)cc2)nc1Nc1cccc([S+](=O)([O-])NC(C)(C)C)c1 , strictly under 90% or not? label 1

Check NC[C@H]1O[C@H](O[C@H]2[C@H](O)[C@@H](O[C@H]3O[C@H](CO)[C@@H](O)[C@H](N)[C@H]3O)[C@H](N)C[C@@H]2N)[C@H](N)C[C@@H]1O too. label 0

Check N#Cc1ccc(NC(=O)Nc2ccccc2Br)c2nn[nH]c12 too. label 0

Check CC(C)n1cnc2c(NCCc3ccc(O)cc3)nc(-c3csc4ccccc34)nc21 too. label 1

Check O=C(NCc1ccccc1)c1csc(Nc2ccncn2)n1 too. label 1

Check COC(=O)C/1=C(C)/N/C(=C(\C1C2=CC(=CC=C2)[N+]([O-])=O)C(=O)OCCCN3CCC(CC3)(C4=CC=CC=C4)C5=CC=CC=C5)C (stereo not given) too. label 0

Check N#C/C(=C1/Nc2ccccc2S1)c1ccnc(OCc2ccc(CN3CCOCC3)cc2)n1 too. label 1

Check O=C(NCC1CCOCC1)c1cnc(Nc2ccc(Cl)cc2Cl)nc1C(F)(F)F too. label 0

Check COc1cc2ncnc(Nc3cccc(Cl)c3)c2cc1OC too. label 1

Check COC(=O)Nc1nc2ccc([S+]([O-])c3ccccc3)cc2[nH]1 (stereo not given) too. label 0

Check C[C@@H](N)C1CC[C@@H](CC1)C(=O)NC2=CC=NC=C2 (stereo not given in full) too. label 0

Check CC(S)C(=O)NCC(=O)O (stereo not given) too. label 0

Check CC(C)Cn1cnc2c(N)nc3ccccc3c21 too. label 0

Check Nc1nc(N)c(N=O)c(OCC2CCCCC2)n1 too. label 1

Check COc1cc2ncn(-c3cc(OCc4ccccc4C(F)(F)F)c(C(N)=O)s3)c2cc1OC too. label 1

Check OCCN(CCO)c1nc(N2CCCCC2)c2nc(N(CCO)CCO)nc(N3CCCCC3)c2n1 too. label 0

Check COc1ccc([S+](=O)([O-])Nc2cccnc2Nc2ccc(O)cc2)cc1 too. label 1

Check CN(C(Cc1ccc(O[S+](=O)([O-])c2cccc3cnccc23)cc1)C(=O)N1CCN(c2ccccc2)CC1)[S+](=O)([O-])c1cccc2cnccc12 (stereo not given) too. label 1

Check N=C(N)NC(=N)N1CCOCC1 too. label 1

Check CN(C)[C@@H](CCOc1cccc2ccccc12)c1ccccc1 too. label 0

Check CN1CCN(CCCN2c3ccccc3Sc3ccc(Cl)cc32)CC1.O=C(O)/C=C\C(=O)O.O=C(O)/C=C\C(=O)O too. label 1

Check O=C1N\C=N/C2=C1C=N[NH]2 too. label 1

Check CC(C)(C)OC(=O)Nc1ccc(-c2cc(C(=O)NCCCCCCC(=O)NO)no2)cc1 too. label 1

Check C1CN\2C[C@@H](\N=C2S1)C3=CC=CC=C3 too. label 0
